FYI, the data here is from patent US20090286816A1.

Target: RUP3 receptor (Mus musculus, UniProt Q7TQP3)
Sequence (Q7TQP3 whole entry): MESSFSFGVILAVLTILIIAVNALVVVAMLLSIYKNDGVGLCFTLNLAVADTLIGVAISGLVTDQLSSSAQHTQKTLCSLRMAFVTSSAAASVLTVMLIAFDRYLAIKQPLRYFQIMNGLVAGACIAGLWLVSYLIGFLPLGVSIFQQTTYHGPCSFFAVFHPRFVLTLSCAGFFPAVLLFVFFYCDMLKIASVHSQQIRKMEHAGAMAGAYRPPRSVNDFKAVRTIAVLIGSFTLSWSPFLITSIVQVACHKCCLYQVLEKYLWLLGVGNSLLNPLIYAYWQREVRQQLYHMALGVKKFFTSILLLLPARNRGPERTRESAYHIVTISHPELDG
Assay: RUP3 dose response in melanophores (mouse receptor)
Measured Quantity: EC50 (µM)
Report as a plain number; the unit µM is understood.

Supply measured EC50 of COc1c(Nc2ccc(-n3cncn3)nc2C)ncnc1OC1CCN(C(=O)OC(C)C)CC1 [Compound of Formula (I)] in your reply.
0.057

====

Target: RUP3 receptor (Rattus norvegicus, UniProt Q7TQN8)
Sequence (Q7TQN8 whole entry): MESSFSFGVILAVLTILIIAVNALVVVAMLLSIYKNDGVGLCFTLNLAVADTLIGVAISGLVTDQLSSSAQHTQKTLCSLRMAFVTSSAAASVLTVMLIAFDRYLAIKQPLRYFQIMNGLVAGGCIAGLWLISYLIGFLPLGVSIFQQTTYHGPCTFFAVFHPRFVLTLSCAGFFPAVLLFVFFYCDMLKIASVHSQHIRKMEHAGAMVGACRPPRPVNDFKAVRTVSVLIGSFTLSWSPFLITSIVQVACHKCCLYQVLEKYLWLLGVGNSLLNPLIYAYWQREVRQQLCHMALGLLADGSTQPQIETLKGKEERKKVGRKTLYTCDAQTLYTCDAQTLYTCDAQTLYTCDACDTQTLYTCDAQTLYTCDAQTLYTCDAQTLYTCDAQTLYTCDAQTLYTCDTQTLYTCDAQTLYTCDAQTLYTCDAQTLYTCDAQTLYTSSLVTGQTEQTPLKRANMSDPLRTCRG
Experiment: RUP3 dose response in melanophores (rat receptor)
Measured Quantity: EC50

Supply measured EC50 of COc1c(Nc2ccc(-n3cncn3)nc2C)ncnc1OC1CCN(C(=O)OC(C)C)CC1 [Compound of Formula (I)] in your reply.
0.081 µM
